System: Tobacco mosaic virus
testProtocol: Antiviral activity against Tobacco mosaic virus (TMV) in tobacco leaf juice at 100 ug/ml after 72 hr by half-leaf method
Assay type: functional
compounds and their reported inhibition at 100 µg/mL
Note: unit % is implicit; provide only the numeric part.

Below: 3 compounds and their reported inhibition at 100 µg/mL.
molecule: C#CCOc1ccc2c3c(c4cc(OC)c(OC)cc4c2c1)C[C@H]1CCCN1C3
valueReported: 43.7
//
molecule: CCOc1ccc2c3c(c4cc(OC)c(OC)cc4c2c1)C[C@@H]1CCCN1C3
valueReported: 25.6
//
molecule: COc1cc2c3c(c4ccc(OC(C)=O)cc4c2cc1OC)CN1CCC[C@H]1C3
valueReported: 30.6

Please look at the following compound next.
Task: Given `CNCC(=O)N[C@@H](CO)C(=O)N[C@H]1[C@H](O)[C@@H](O)[C@H](n2ccc(N)nc2=O)O[C@@H]1C(N)=O` , respond with its inhibition at 100 µg/mL.
Output: 26.8
